experiment: RPMI8226 myeloma cell viability, profiling panel, resazurin fluorescence, basal, 24 h, PK04 Diversity Set (AID 1180);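 further: RPMI8826 multiple myeloma cell line at 5000 cells per well; test concentration not given here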
setup-conditions: higher = more signal
readout-name: z-score
Reply with just the number.

What does the record list as z-score for CON(C)C(=O)c1nnc2c(n1)[nH]c1ccccc12 ?
0.492

====

system-name: Dickkopf-related protein 1 (Homo sapiens) (UniProt O94907)
Sequence (O94907 whole entry, looked up): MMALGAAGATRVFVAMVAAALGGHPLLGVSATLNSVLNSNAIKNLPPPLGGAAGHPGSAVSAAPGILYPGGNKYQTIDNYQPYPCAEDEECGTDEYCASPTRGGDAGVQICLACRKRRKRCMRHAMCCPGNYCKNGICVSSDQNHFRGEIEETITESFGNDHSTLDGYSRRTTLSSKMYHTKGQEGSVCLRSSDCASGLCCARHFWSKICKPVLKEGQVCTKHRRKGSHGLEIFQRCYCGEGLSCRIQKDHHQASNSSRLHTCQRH
experiment: DKK1 binders on small-molecule microarrays, primary screen, biochemical, small-molecule microarray, 635 nm fluorescence scan (AID 1106);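 further: score merges emission near 667 nm with signal to noise over three replicate slides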
setup-conditions: DKK1 binding, higher = more signal
Response key: MET means composite z-score >= 1; NOT MET means composite z-score < 1.

Field: example entries. Status: answers known.
compound: CCOC(=O)CCN1C(=O)[C@H]2[C@H]3[C@H](O)[C@H](O)CC(=NO[C@@H]4O[C@H](CO)[C@@H](O)[C@H](O)[C@H]4O)[C@@H]3CC[C@H]2C1=O
label-value: MET
--
compound: C=C(C)C(=O)OC[C@H]1CN2[C@@H](CC[C@@H](C)[C@@H]2c2ccc(Br)cc2)C(=O)O1
label-value: NOT MET
--
compound: COC(=O)[C@@H]1CC[C@H](C)[C@@H](c2ccc(C)cc2)N1C(=O)c1ccc(C=NO[C@@H](C)c2cc(-c3c(C)cc(C)cc3C)no2)cc1
label-value: NOT MET
--
compound: CCN1C(=O)[C@H]2[C@@H]3C(=CC[C@H]2C1=O)C(=O)[C@H]1O[C@H]1[C@H]3O
label-value: MET
--
compound: CC#CCOCCC=C1c2ccccc2[C@@H](OC)[C@@H]1C
label-value: NOT MET
--
compound: COC(=O)[C@H](C)NC(=O)CCC1CC(OC(=O)NCc2ccc3c(c2)OCO3)CC2(CCCC(COC(=O)NCCc3ccc(Cl)cc3)O2)O1 (stereo not given in full)
label-value: MET
--
compound: C=CC[C@@H]1C=C[C@H](ON=C(C)CCN2CCCc3nc(C)c(C)cc32)[C@@H](CO)O1
label-value: MET
--
compound: C[C@@H]1CC[C@H]2C(=O)N3[C@@H](CC[C@@H](C)[C@@H]3c3ccc(Br)cc3)C(=O)N2[C@H]1c1ccc(Br)cc1
label-value: NOT MET

Please tell me: is the compound CO[C@@H]1C=CCC(=O)N[C@@H](C)C(=O)OC[C@@H](NS(=O)(=O)c2ccc(C)cc2)[C@H](C)C=CCC(=O)OC[C@H]1C at or over 1 in terms of composite z-score?
NOT MET

And for CC(C)CON=C1[C@H]2CCn3c(=O)n(C)c(=O)n3[C@H]2[C@H](O)[C@@H]2O[C@H]12 ?
NOT MET
